- ASSAY_INFO: Plasma pharmacokinetics of CC-115
- Assay type: in vivo, human
- CONDITION_INFO: human, plasma, oral, 40 mg, Plasma Tmax, median (min, max), multiple doses, 40 mg QD, n = 4
PROPERTY_MEASURED: Tmax (h)

{"columns": ["RECORD_SMILES", "READOUT_UNIT", "QUANTITATIVE_READOUT"],
 "data": [
  ["CCN1C(=O)CNc2ncc(-c3ccc(-c4nc[nH]n4)nc3C)nc21", "h", 3]
]}

###

- ASSAY_INFO: Plasma pharmacokinetics of CC-115
- Format: in vivo, human
- CONDITION_INFO: human, plasma, oral, 15 mg, Plasma Cmax, mean (CV%), multiple doses, 15 mg BID, n = 5

{"columns": ["COMPOUND", "READOUT_UNIT", "Cmax"],
 "data": [
  ["CCN1C(=O)CNc2ncc(-c3ccc(-c4nc[nH]n4)nc3C)nc21 [CC-115]", "ng/mL", 162]
]}

###

- ASSAY_INFO: Plasma pharmacokinetics of CC-115
- Assay type: in vivo, human
- CONDITION_INFO: human, plasma, oral, 10 mg

{"columns": ["COMPOUND", "READOUT_UNIT", "Vd/F"],
 "data": [
  ["CCN1C(=O)CNc2ncc(-c3ccc(-c4nc[nH]n4)nc3C)nc21 [CC-115]", "L", 189]
]}

###

- ASSAY_INFO: Plasma pharmacokinetics of CC-115
- Assay type: in vivo, human
- CONDITION_INFO: human, plasma, oral, 10 mg, Plasma Tmax, median (min, max), first dose, 10 mg BID, n = 6

{"columns": ["COMPOUND", "Tmax"],
 "data": [
  ["CCN1C(=O)CNc2ncc(-c3ccc(-c4nc[nH]n4)nc3C)nc21 [CC-115]", "2.25 h"]
]}

###

- ASSAY_INFO: Plasma pharmacokinetics of CC-115
- Type: in vivo, human
- CONDITION_INFO: human, plasma, oral, 16 mg

{"columns": ["COMPOUND", "READOUT_UNIT", "AUC(0-inf)"],
 "data": [
  ["CCN1C(=O)CNc2ncc(-c3ccc(-c4nc[nH]n4)nc3C)nc21 [CC-115]", "ng·h/mL", 625]
]}

###

- ASSAY_INFO: Plasma pharmacokinetics of CC-115
- Type: in vivo, human
- CONDITION_INFO: human, plasma, oral, 8 mg
PROPERTY_MEASURED: Vd/F (L)

{"columns": ["RECORD_SMILES", "READOUT_UNIT", "QUANTITATIVE_READOUT"],
 "data": [
  ["CCN1C(=O)CNc2ncc(-c3ccc(-c4nc[nH]n4)nc3C)nc21", "L", 294]
]}

###

- ASSAY_INFO: Plasma pharmacokinetics of CC-115
- Assay type: in vivo, human
- CONDITION_INFO: human, plasma, oral, 40 mg, Plasma Cmax, mean (CV%), multiple doses, 40 mg QD, n = 4

{"columns": ["RECORD_SMILES", "READOUT_UNIT", "Cmax"],
 "data": [
  ["CCN1C(=O)CNc2ncc(-c3ccc(-c4nc[nH]n4)nc3C)nc21", "ng/mL", 244]
]}

###

- ASSAY_INFO: Plasma pharmacokinetics of CC-115
- Assay type: in vivo, human
- CONDITION_INFO: human, plasma, oral, 8 mg, Plasma Tmax, median (min, max), first dose, 8 mg QD, n = 6

{"columns": ["RECORD_SMILES", "Tmax / h"],
 "data": [
  ["CCN1C(=O)CNc2ncc(-c3ccc(-c4nc[nH]n4)nc3C)nc21", 1.5]
]}

###

- ASSAY_INFO: Plasma pharmacokinetics of CC-115
- Type: in vivo, human
- CONDITION_INFO: human, plasma, oral, 10 mg, Plasma Cmax, mean (CV%), multiple doses, 10 mg BID, n = 7

{"columns": ["MOLECULE", "Cmax / ng/mL"],
 "data": [
  ["CCN1C(=O)CNc2ncc(-c3ccc(-c4nc[nH]n4)nc3C)nc21 [CC-115]", 75.2]
]}

###

- ASSAY_INFO: Plasma pharmacokinetics of CC-115
- Assay type: in vivo, human
- CONDITION_INFO: human, plasma, oral, 40 mg, Plasma Cmax, mean (CV%), first dose, 40 mg QD, n = 6

{"columns": ["COMPOUND", "READOUT_UNIT", "Cmax"],
 "data": [
  ["CCN1C(=O)CNc2ncc(-c3ccc(-c4nc[nH]n4)nc3C)nc21 [CC-115]", "ng/mL", 167]
]}

###

- ASSAY_INFO: Plasma pharmacokinetics of CC-115
- Type: in vivo, human
- CONDITION_INFO: human, plasma, oral, 16 mg, Plasma Tmax, median (min, max), first dose, 16 mg QD, n = 6
PROPERTY_MEASURED: Tmax (h)

{"columns": ["RECORD_SMILES", "QUANTITATIVE_READOUT"],
 "data": [
  ["CCN1C(=O)CNc2ncc(-c3ccc(-c4nc[nH]n4)nc3C)nc21", 2.95]
]}

###

- ASSAY_INFO: Plasma pharmacokinetics of CC-115
- Format: in vivo, human
- CONDITION_INFO: human, plasma, oral, 8 mg, Plasma Tmax, median (min, max), multiple doses, 8 mg QD, n = 7
PROPERTY_MEASURED: Tmax

{"columns": ["MOLECULE", "RESULT"],
 "data": [
  ["CCN1C(=O)CNc2ncc(-c3ccc(-c4nc[nH]n4)nc3C)nc21 [CC-115]", "1.5 h"]
]}

###

- ASSAY_INFO: Plasma pharmacokinetics of CC-115
- Format: in vivo, human
- CONDITION_INFO: human, plasma, oral, 8 mg, Plasma AUC12, mean (CV%), first dose, 8 mg QD, n = 6
PROPERTY_MEASURED: AUC

{"columns": ["RECORD_SMILES", "RESULT"],
 "data": [
  ["CCN1C(=O)CNc2ncc(-c3ccc(-c4nc[nH]n4)nc3C)nc21", "180 ng·h/mL"]
]}

###

- ASSAY_INFO: Plasma pharmacokinetics of CC-115
- Format: in vivo, human
- CONDITION_INFO: human, plasma, oral, 40 mg, Plasma Tmax, median (min, max), first dose, 40 mg QD, n = 6

{"columns": ["COMPOUND", "Tmax (h)"],
 "data": [
  ["CCN1C(=O)CNc2ncc(-c3ccc(-c4nc[nH]n4)nc3C)nc21 [CC-115]", 2.25]
]}
